# maps each entry to its melting point

Past entries and their recorded results:
1) CN1CCN(c2cccc3c2C[C@H](NC(=O)c2ccc(C(=O)N(C)C)cc2)CO3)CC1; 219 °C (dec.)
2) CN1CCN(c2cccc3c2C[C@H](NC(=O)c2ccc(C(=O)N4CCOCC4)cc2)CO3)CC1; 222 °C (dec.)
3) CN1CCN(c2cccc3c2C[C@H](NC(=O)c2ccc(N4CCNC(=O)CC4)cc2)CO3)CC1; 244 to 247 °C (dec.)
4) CN1CCN(c2cccc3c2C[C@H](NC(=O)c2ccc(C(F)(F)F)cc2C(F)(F)F)CO3)CC1; 202 to 203 °C

-- ask If you can, please state the reported melting point value of CN1CCN(c2cccc3c2C[C@H](NC(=O)c2ccc(N4CCN(CCO)CC4)cc2)CO3)CC1 .
-- reply 211 to 212 °C

-- ask Field request: melting point | item: CN1CCN(c2cccc3c2C[C@H](NC(=O)c2ccc(N4CCOCC4)cc2)CO3)CC1
-- reply 210 to 212 °C

-- ask Dear colleague, I am looking for the recorded melting point of the following molecule: CN1CCN(c2cccc3c2C[C@H](NC(=O)c2ccc(C(F)(F)F)cc2)CO3)CC1
-- reply 212 to 214 °C

-- ask Give the measured melting point of CC(=O)N1CCN(c2ccc(C(=O)N[C@@H]3COc4cccc(N5CCN(C)CC5)c4C3)cc2)CC1 .
-- reply 88 °C (dec.)

-- ask What melting point value was documented for this molecule, CN1CCN(c2cccc3c2C[C@H](NC(=O)c2ccc(N4CCNCC4)cc2)CO3)CC1 ?
-- reply > 102 °C
